The following are reported Ki results, target or system rat frontal cortical SERT, rSERT (Rattus norvegicus, UniProt P31652).
MEASURED PROPERTY: Ki (nM)

# MOLECULE, TGT, Ki / nM
measured = [
    ("O=[N+]([O-])c1ccc2nc(N3CCNCC3COCCCF)ccc2c1 (racemic) [Cpd 2]", "rat frontal cortical SERT, rSERT (Rattus norvegicus, UniProt P31652)", 0.28),
]

[I] COC[C@H]1CNCCN1c1ccc2cc([N+](=O)[O-])ccc2n1 [Cpd 13R]
[II] COC[C@@H]1CNCCN1c1ccc2cc([N+](=O)[O-])ccc2n1 [Cpd 13S]
Lowest Ki? choose I or II Give the chosen item's label as your response. I

Ref: patent US7812162B2
